Assay: in vitro
Conditions: African green monkey
recorded-endpoint: CC50

Look at this compound and give its reported CC50. COc1cc(/C=C/C(=O)/C=C/C=C/c2cc(OC)c(O)c(OC)c2)cc(OC)c1
> 15 µM

###

Assay: Acute oral toxicity (OECD 423)
Type: in vivo
Conditions: both sexes, mouse, in vivo; oral; read-out: median lethal dose (LD50)
recorded-endpoint: LD50 at 14 days

Look at this molecule and give its reported LD50 at 14 days. COc1cc(/C=C/C(=O)/C=C/C=C/c2cc(OC)c(O)c(OC)c2)cc(OC)c1 [Compound I]
> 2000 mg/kg

###

Test system: SARS-CoV-2
Assay: Inactivation of SARS-CoV-2 upon direct exposure
Details: Severe acute respiratory syndrome coronavirus 2, read-out: 50% reduction (IC50), inactivation of SARS-CoV-2
recorded-endpoint: pIC50
Conceptually, pIC50 converts a concentration in mol/L into minus its log10.

Look at this compound and give its reported pIC50. COc1cc(/C=C/C(=O)/C=C/C=C/c2cc(OC)c(O)c(OC)c2)cc(OC)c1
6.00

###

Tested on: panel of human normal cell lines
Assay: MTT cytotoxicity of anticancer agents on normal cell lines, alone and with Compound I
Conditions: Homo sapiens, read-out: IC50 (average)
pIC50: −log10 of the molar value.
recorded-endpoint: pIC50

// below: answered molecules
[
  {
    "molecule": "CCN(CC)CCCC(C)Nc1ccnc2cc(Cl)ccc12 (stereo not shown)",
    "system": "panel of human normal cell lines",
    "pIC50": "4.39 to 4.89"
  },
  {
    "molecule": "COc1cccc2c1C(=O)c1c(O)c3c(c(O)c1C2=O)C[C@@](O)(C(=O)CO)C[C@@H]3O[C@H]1C[C@H](N)[C@H](O)[C@H](C)O1",
    "system": "panel of human normal cell lines",
    "pIC50": "4.39 to 4.89"
  },
  {
    "molecule": "Nc1ccn([C@@H]2O[C@H](CO)[C@@H](O)C2(F)F)c(=O)n1",
    "system": "panel of human normal cell lines",
    "pIC50": "4.39 to 4.89"
  },
  {
    "molecule": "O=c1[nH]cc(F)c(=O)[nH]1",
    "system": "panel of human normal cell lines",
    "pIC50": "4.39 to 4.89"
  },
  {
    "molecule": "CC[C@]1(O)C[C@H]2CN(CCc3c([nH]c4ccccc34)[C@@](C(=O)OC)(c3cc4c(cc3OC)N(C=O)[C@H]3[C@@](O)(C(=O)OC)[C@H](OC(C)=O)[C@]5(CC)C=CCN6CC[C@]43[C@@H]65)C2)C1",
    "system": "panel of human normal cell lines",
    "pIC50": "4.39 to 4.89"
  }
]

Look at this molecule and give its reported pIC50. CCc1c2c(nc3ccc(OC(=O)N4CCC(N5CCCCC5)CC4)cc13)-c1cc3c(c(=O)n1C2)COC(=O)[C@]3(O)CC
4.39 to 4.89

Same question for CCN(CCO)CCCC(C)Nc1ccnc2cc(Cl)ccc12 (stereo not shown) [Hydroxychloroquine] please.
4.39 to 4.89
